Attribution: patent US20140235820A1

Target: LRP6 E1E2 (Homo sapiens)
Construct: construct E1E2-amino acids A20-E631 of LPR6; made in house; host or cells: Tni insect cells (baculovirus, secreted)
Sequence (O75581 20-631): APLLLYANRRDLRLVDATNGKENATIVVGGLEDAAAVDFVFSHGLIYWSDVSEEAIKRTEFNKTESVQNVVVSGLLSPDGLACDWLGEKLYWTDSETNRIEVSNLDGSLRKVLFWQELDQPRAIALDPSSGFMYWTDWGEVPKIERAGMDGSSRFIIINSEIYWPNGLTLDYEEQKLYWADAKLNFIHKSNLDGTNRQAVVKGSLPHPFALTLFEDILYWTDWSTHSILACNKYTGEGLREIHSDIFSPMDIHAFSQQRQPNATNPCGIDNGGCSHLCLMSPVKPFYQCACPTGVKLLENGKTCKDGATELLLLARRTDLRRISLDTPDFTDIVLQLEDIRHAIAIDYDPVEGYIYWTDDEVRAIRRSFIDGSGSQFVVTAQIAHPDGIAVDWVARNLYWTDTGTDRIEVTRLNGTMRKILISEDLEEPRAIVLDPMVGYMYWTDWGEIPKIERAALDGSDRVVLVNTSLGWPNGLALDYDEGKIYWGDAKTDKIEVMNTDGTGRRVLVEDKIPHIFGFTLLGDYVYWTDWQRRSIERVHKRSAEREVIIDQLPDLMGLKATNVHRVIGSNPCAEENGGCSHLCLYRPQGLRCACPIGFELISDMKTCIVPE
Experiment: Biolayer interferometry binding to LRP6 E1E2
Conditions: steady state, read-out: affinity for LRP6 E1E2
measured-attribute: pKd
Interpret pKd as the negative base-10 log of the concentration measured in mol/L.

pKd for Dkk1: Dickkopf 1 protein, Wnt pathway inhibitor, expressed in insect cells (NSNAIKN) ?
7.66
